Source: the supplement of paper PMC12137928

Test system: HCT116
CONDITION PARAMETERS: 72 h; ICRF193 0 nM
Structures can show the parent of a compound that is named as a salt.
READOUT NAME: IC50 cell viability

Note down IC50 cell viability recorded for Nc1ccc(C(=O)Oc2ccccc2)c(O)c1 [Phenyl 4-aminosalicylate]
> 45.8 µM

Note down IC50 cell viability recorded for CNC(=O)Oc1ccc2c(c1)[C@]1(C)CCN(C)[C@@H]1N2C [Physostigmine]
> 45.8 µM

Note down IC50 cell viability recorded for C#CCC(Cc1cnc2nc(N)nc(N)c2n1)c1ccc(C(=O)N[C@@H](CCC(=O)O)C(=O)O)cc1 (some centres undefined) [Pralatrexate]
0.0082 µM

Note down IC50 cell viability recorded for CC(=O)O[C@H]1CC[C@@]2(C)C(=CC[C@@H]3[C@@H]2CC[C@]2(C)C(c4cccnc4)=CC[C@@H]32)C1 [Abiraterone acetate]
> 45.8 µM

Note down IC50 cell viability recorded for N[C@@H](CSCC(=O)O)C(=O)O [Carbocysteine]
> 45.8 µM

Note down IC50 cell viability recorded for COCC(=O)Nc1c(I)c(C(=O)NCC(O)CO)c(I)c(C(=O)N(C)CC(O)CO)c1I (centres undefined) [Iopromide]
> 45.8 µM

Note down IC50 cell viability recorded for CC(C)(C)c1cc(C(C)(C)C)c(NC(=O)c2c[nH]c3ccccc3c2=O)cc1O [Ivacaftor]
18.3 µM

Note down IC50 cell viability recorded for CN(CC(O)CO)C(=O)c1c(I)c(NC(=O)C(CO)CO)c(I)c(C(=O)N(C)CC(O)CO)c1I (centres undefined) [IOBITRIDOL]
> 45.8 µM

Note down IC50 cell viability recorded for CCN1CCCC(OC(=O)C(c2ccccc2)c2ccccc2)C1 (centres undefined) [Piperidolate hydrochloride]
> 45.8 µM

Note down IC50 cell viability recorded for CNC(=O)c1cc(Oc2ccc(NC(=O)Nc3ccc(Cl)c(C(F)(F)F)c3)c(F)c2)ccn1 [Regorafenib]
8.2 µM

Note down IC50 cell viability recorded for C[C@]1(COc2ccc(N3CCC(Oc4ccc(OC(F)(F)F)cc4)CC3)cc2)Cn2cc([N+](=O)[O-])nc2O1 [Delamanid]
> 45.8 µM

Note down IC50 cell viability recorded for Cc1oncc1C(=O)Nc1ccc(C(F)(F)F)cc1 [Leflunomide]
20.6 µM

Note down IC50 cell viability recorded for COc1cc2nccc(Oc3ccc(NC(=O)C4(C(=O)Nc5ccc(F)cc5)CC4)cc3)c2cc1OC [Cabozantinib]
20.6 µM

Note down IC50 cell viability recorded for O=C1CCc2ccc(OCCCCN3CCN(c4cccc(Cl)c4Cl)CC3)cc2N1 [Aripiprazole]
11.6 µM

Note down IC50 cell viability recorded for Cc1ccc(Cl)c(Nc2ccccc2C(=O)O)c1Cl [Meclofenamate sodium]
> 45.8 µM

Note down IC50 cell viability recorded for C/C=C\c1ccc(O)c(OC)c1 [Isoeugenol]
> 45.8 µM

Note down IC50 cell viability recorded for C[C@]12CC[C@@H]3c4ccc(O)cc4CC[C@H]3[C@@H]1C[C@@H](O)[C@@H]2O [Estriol]
> 45.8 µM

Note down IC50 cell viability recorded for COc1ccc(/C=C/C(=O)O)cc1 [4-Methoxycinnamic acid]
> 45.8 µM

Note down IC50 cell viability recorded for CC(=O)O[C@@H]1C(=O)O[C@H]2[C@@H]1OC(=O)[C@@H]2OC(C)=O [Aceglatone]
> 45.8 µM

Note down IC50 cell viability recorded for Cc1ccsc1C(=CCCN1CCC[C@@H](C(=O)O)C1)c1sccc1C [Tiagabine hydrochloride]
> 45.8 µM

Note down IC50 cell viability recorded for C/C=C/C=C/C(=O)O [Sorbic acid]
> 45.8 µM

Note down IC50 cell viability recorded for COc1ccc2c(c1)c(CC(=O)OC/C=C(\C)CC/C=C(\C)CCC=C(C)C)c(C)n2C(=O)c1ccc(Cl)cc1 [Indomethacin farnesil]
> 45.8 µM

Note down IC50 cell viability recorded for COC(=O)[C@H]1[C@H]2C[C@@H]3c4[nH]c5cc(OC)ccc5c4CCN3C[C@H]2C[C@@H](OC(=O)/C=C/c2cc(OC)c(OC)c(OC)c2)[C@@H]1OC [Rescinnamin]
> 45.8 µM

Note down IC50 cell viability recorded for COC1=C(OC)C(=O)C(CCCCCCCCCCO)=C(C)C1=O [Idebenone]
20.6 µM

Note down IC50 cell viability recorded for O=[N+]([O-])c1cc(I)c(O)c(I)c1 [2,6-DIIODO-4-NITROPHENOL]
> 45.8 µM

Note down IC50 cell viability recorded for COC(=S)NCCn1c([N+](=O)[O-])cnc1C [CARNIDAZOLE]
> 45.8 µM

Note down IC50 cell viability recorded for CCCCCC1Nc2cc(C(F)(F)F)c(S(N)(=O)=O)cc2S(=O)(=O)N1 (centres undefined) [Penflutizide]
> 45.8 µM

Note down IC50 cell viability recorded for CC(=O)Nc1ccc(OC(=O)c2ccccc2OC(C)=O)cc1 [Benorylate]
> 45.8 µM

Note down IC50 cell viability recorded for CS(=O)(=O)Nc1ccc([N+](=O)[O-])cc1Oc1ccccc1 [Nimesulide]
> 45.8 µM

Note down IC50 cell viability recorded for O=c1c(-c2ccccc2)c1-c1ccccc1 [Diphenylcyclopropenone]
29.1 µM

Note down IC50 cell viability recorded for OCc1ccc(Cl)cc1Cl [2,4-Dichlorobenzyl alcohol]
> 45.8 µM

Note down IC50 cell viability recorded for CO/N=C(\C(=O)N[C@@H]1C(=O)N2C(C(=O)O)=C(CSc3cnns3)CS[C@H]12)c1csc(N)n1 [Cefuzonam hydrochloride]
> 45.8 µM

Note down IC50 cell viability recorded for CCCCC1=NC2(CCCC2)C(=O)N1Cc1ccc(-c2ccccc2-c2nnn[nH]2)cc1 [Irbesartan]
> 45.8 µM

Note down IC50 cell viability recorded for c1ccc2[nH]c(-c3cscn3)nc2c1 [Thiabendazole]
> 45.8 µM
